Reference source for all entries: paper PMC11147780

- Target Or Test System: T1, 10E8-GT10.2 epitope scaffold (designed scaffold 10E8-GT10.2 with …, N-linked glycosylation sites added (positions not given))
- T1 chain: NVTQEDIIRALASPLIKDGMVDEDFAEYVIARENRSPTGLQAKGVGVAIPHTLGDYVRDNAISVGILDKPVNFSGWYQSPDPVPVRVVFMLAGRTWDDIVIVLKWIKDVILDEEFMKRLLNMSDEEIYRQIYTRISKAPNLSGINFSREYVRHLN
Each record here notes measured Kd.
Give just the numeric value; nM need not be written.

Consider the reported Kd for these binders:
[[record]]
binder = "MPER-052 (antibody, V domains shown) VH: EVQLVESGGGLVQPGRSLRLSCTASGFTFGDYAMSWVRQAPGKGLEWVGFIRSKAYGGTTEYAASVKGRFTISRDDSKSIAYLQMNSLKTEDTAVYYCTRDLMGYYDFWSGYYRGHYGMDVWGKGTTVTVSS VL: AIQMTQSPSSLSASVGDRVTITCRASQGIRNDLGWYQQKPGKAPKLLIYAASSLQSGVPSRFSGSGSGTDFTLTISSLQPEDFATYYCLQDYNYPLTFGGGTKVEIK"
property_label = "Kd"
readout_number = 4100

[[record]]
binder = "NHP-Comp_MPER-GT10v55_W21-01 (antibody, V domains shown) VH: QVQLQESGPGLVKPSETLSLTCAVSGGSFSSYWWGWIRQPPGKGLEWIGSIYGSSGSTEYNPSLKSRATISRDTSKNQFSLKLSSVTAADTAVYYCARVKAPEIFGVVITGYYFDYWGQGVLVTVSS VL: SYELTQPLSVSVALGQMARITCGGNNIGRKYVYWYQQKPDQAPVLVIYEDSKRPSGIPERFAGSNSGNTATLTIDGAQARDEADYYCQVWDSSTAYIFGAGTRLTV"
property_label = "Kd"
readout_number = 2630


Query: Report Kd for NHP-10E8_MPER-GT10v55_W21-05 (antibody, V domains shown) VH: EVRLVESGGGLVQPGGSLRLSCAASGFTFSDYYMSWVRQAPGKGPEWVGFIRNKANGGTAEYAASVKGRFTISRDDSKSIASLQMNSLKTEDTAVYYCARDTYTYNFWSGYYRSNSLDVWGRGVLVTVSS VL: SYDLTQPPSVSVSPGQTARITCGGDNIGSEAVHWYQQKPPQAPVQVIYSDSERPSGIPERFSGSKSGNTATLTISGVEAGDEADYYCQVWDISSDHYIFGAGTRLTV please.
Reply: 2410

Query: Report Kd for MPER18_d21_45.2_v55_m15_A06 (antibody, V domains shown) VH: QVQLQESGPGLVKPSETLSLACTVSGGSFSSSYWSWIRQPPGKGLEWIGYIYYSGSTNYNPSLKSRVTMSVDTSKNQFSLKLSSVTAADTAVYYCAREPPYYDFWSGLSMGVGAFDIWGQGTMVTVSS VL: DVLMTQSPLSLSVSLGDQASISCRSSQSVVHSNGNTYLEWYLQQPGQSPKLLIYKVSNRFSGVPDRFSGSGSGTDFTLKISRVEAEDLGVYYCFQGSHVPWTFGGGTKLEIK please.
Reply: 86.1

Query: Report Kd for MPER18_d21_45.2_v55_m5_E10 (antibody, V domains shown) VH: QVQLQESGPGLVKPSETLSLTCSVSGGSISGYYWSWIRQPPGKGLEWIGYIFYSGSTNYNPSLKSRVTISVDTSKNQFSLKLTSVTAADTAVYYCAREPPYYDFWSGLSMGVGAFDIWGQGTMVTVSS VL: DIVMTQTPLSLPVSLGDQASISCSSSQNIVHSNGYTYLEWYLQKPGQSPKLLIYKVSNRFSGVPDRFSGSGSGTDFTLKISRVEAEDLGVYYCFQGSHVPYTFGGGTKLEIK please.
Reply: 0.571
